SYSTEM_UNDER_TEST: bovine serum albumin (BSA) (Bos taurus, UniProt P02769)
Construct: a solution of bovine serum albumin (BSA) in water
Sequence (P02769 25-607): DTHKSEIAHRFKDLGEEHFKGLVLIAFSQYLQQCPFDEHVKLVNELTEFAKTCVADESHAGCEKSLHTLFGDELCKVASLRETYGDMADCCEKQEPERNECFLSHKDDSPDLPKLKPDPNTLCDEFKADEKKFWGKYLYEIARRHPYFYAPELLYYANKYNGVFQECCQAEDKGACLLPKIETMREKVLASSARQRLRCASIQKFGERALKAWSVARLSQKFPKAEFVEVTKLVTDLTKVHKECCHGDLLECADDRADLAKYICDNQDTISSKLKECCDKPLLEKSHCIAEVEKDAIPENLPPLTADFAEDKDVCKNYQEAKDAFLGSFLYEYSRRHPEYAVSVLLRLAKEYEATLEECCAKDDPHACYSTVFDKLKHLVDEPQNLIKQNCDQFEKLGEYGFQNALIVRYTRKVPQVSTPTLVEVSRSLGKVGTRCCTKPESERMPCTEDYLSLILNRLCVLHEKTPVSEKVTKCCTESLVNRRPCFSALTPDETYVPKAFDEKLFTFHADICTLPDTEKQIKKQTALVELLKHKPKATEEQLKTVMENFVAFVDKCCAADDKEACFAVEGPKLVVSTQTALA
PROTOCOL_DESCRIPTION: Protein binding studies: BSA solution, centrifugal filter devices, drug in filtrate by HPLC
Format: in vitro ADME
CONDITION_INFO: 6-mercaptopurine and 6-mercaptopurine prodrugs; method of Example 7, 4% BSA, 37° C.
% Albumin binding overview

| COMPOUND | SYSTEM_UNDER_TEST | RECORDED_MEASUREMENT |
| --- | --- | --- |
| O=C(O)CCCCCCCCCCCSc1ncnc2[nH]cnc12 [Example 11, 12-(1H-purin-6-ylthio)dodecanoic acid] | bovine serum albumin (BSA) (Bos taurus, UniProt P02769) | 100% |
| Sc1ncnc2nc[nH]c12 [6-Mercaptopurine, reference compound] | bovine serum albumin (BSA) (Bos taurus, UniProt P02769) | 10% |

The record that follows has no % Albumin binding shown yet.
Ask | What value of measured % Albumin binding is listed for COC(=O)CCCCCSc1ncnc2[nH]cnc12 [Example 9] ?
Reply | 72%

====

% Protein Binding overview
SYSTEM_UNDER_TEST: bovine serum albumin (BSA) (Bos taurus)
Construct: a solution of bovine serum albumin (BSA) in water
PROTOCOL_DESCRIPTION: Protein binding studies: BSA solution, centrifugal filter devices, drug in filtrate by HPLC
Type: in vitro ADME
CONDITION_INFO: didanosine derivatives of Examples 24 and 25; 4% BSA, 37° C.
# number only, unit % dropped from output

Field: example entries. Status: answers known.
| MOLECULE | % Protein Binding, % |
| --- | --- |
| O=C(O)c1ccc(C(=O)OC[C@@H]2CC[C@H](n3cnc4c(O)ncnc43)O2)cc1 | 44 |
| O=C(O)CCc1ccc(CCC(=O)OC[C@@H]2CC[C@H](n3cnc4c(O)ncnc43)O2)cc1 | 63 |
| O=C(O)c1cccc(C(=O)OC[C@@H]2CC[C@H](n3cnc4c(O)ncnc43)O2)c1 | 51 |
| O=C(O)Cc1ccccc1CC(=O)OC[C@@H]1CC[C@H](n2cnc3c(O)ncnc32)O1 | 25 |
| CC(C)(C)OC(=O)OC[C@@H]1CC[C@H](n2cnc3c(O)ncnc32)O1 [Example 24, 5′-Boc,-2′3′-dideoxyinosine] | 8 |

Ask | What value of measured % Protein Binding is listed for "O=C(O)Cc1ccc(CC(=O)OC[C@@H]2CC[C@H](n3cnc4c(O)ncnc43)O2)cc1" ?
Reply | 28

Ask | What value of measured % Protein Binding is listed for "O=C(O)Cc1cccc(CC(=O)OC[C@@H]2CC[C@H](n3cnc4c(O)ncnc43)O2)c1" ?
Reply | 38

====

SYSTEM_UNDER_TEST: bovine serum albumin (BSA) (Bos taurus)
Construct: a solution of bovine serum albumin (BSA) in water
PROTOCOL_DESCRIPTION: Protein binding studies: BSA solution, centrifugal filter devices, drug in filtrate by HPLC
Assay type: in vitro ADME
CONDITION_INFO: didanosine and didanosine prodrugs; method of Example 7, 4% BSA, 37° C.
% Albumin binding overview
# number only, unit % dropped from output

Field: example entries. Status: answers known.
| COMPOUND | RECORDED_MEASUREMENT |
| --- | --- |
| O=C(O)CCCCC(=O)OCC1CCC(n2cnc3c(=O)[nH]cnc32)O1 (stereo not shown) | 100 |
| O=C(O)CCCCCCCCCCC(=O)OCC1CCC(n2cnc3c(=O)[nH]cnc32)O1 (stereo not shown) | 40 |
| O=C(O)CCCCCCC(=O)OCC1CCC(n2cnc3c(=O)[nH]cnc32)O1 (stereo not shown) | 10 |

The record that follows has no % Albumin binding shown yet.
Ask | Write down the reported % Albumin binding of "CC(C)(C)OC(=O)OC[C@@H]1CC[C@H](n2cnc3c(O)ncnc32)O1" , test system: bovine serum albumin (BSA) (Bos taurus).
Reply | 94

Every entry's value here was drawn from patent US20080103110A1.
